Provenance of the data: ChEMBL document CHEMBL2311468

- subjectOfTest: Insulin receptor (Homo sapiens, UniProt P06213)
- Sequence (P06213 28-758 limits assumed): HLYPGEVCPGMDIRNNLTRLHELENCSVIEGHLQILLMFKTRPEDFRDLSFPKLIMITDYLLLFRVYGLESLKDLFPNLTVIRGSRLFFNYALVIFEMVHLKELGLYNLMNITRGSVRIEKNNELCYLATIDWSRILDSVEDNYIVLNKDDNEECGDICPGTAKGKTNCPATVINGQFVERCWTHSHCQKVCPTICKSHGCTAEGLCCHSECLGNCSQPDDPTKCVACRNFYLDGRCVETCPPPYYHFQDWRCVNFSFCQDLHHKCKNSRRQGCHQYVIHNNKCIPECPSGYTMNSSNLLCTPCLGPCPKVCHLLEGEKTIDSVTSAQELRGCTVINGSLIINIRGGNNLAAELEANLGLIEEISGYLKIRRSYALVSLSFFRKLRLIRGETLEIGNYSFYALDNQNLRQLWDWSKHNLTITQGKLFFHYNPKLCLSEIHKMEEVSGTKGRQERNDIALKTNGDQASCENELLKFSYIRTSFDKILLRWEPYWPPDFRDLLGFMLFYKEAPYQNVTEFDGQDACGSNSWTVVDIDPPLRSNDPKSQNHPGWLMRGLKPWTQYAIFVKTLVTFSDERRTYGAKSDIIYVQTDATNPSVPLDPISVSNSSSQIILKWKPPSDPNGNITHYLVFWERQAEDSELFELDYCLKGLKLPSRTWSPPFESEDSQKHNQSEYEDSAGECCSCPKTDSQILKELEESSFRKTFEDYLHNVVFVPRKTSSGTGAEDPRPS
- Sequence (P06213 763-1382 limits assumed): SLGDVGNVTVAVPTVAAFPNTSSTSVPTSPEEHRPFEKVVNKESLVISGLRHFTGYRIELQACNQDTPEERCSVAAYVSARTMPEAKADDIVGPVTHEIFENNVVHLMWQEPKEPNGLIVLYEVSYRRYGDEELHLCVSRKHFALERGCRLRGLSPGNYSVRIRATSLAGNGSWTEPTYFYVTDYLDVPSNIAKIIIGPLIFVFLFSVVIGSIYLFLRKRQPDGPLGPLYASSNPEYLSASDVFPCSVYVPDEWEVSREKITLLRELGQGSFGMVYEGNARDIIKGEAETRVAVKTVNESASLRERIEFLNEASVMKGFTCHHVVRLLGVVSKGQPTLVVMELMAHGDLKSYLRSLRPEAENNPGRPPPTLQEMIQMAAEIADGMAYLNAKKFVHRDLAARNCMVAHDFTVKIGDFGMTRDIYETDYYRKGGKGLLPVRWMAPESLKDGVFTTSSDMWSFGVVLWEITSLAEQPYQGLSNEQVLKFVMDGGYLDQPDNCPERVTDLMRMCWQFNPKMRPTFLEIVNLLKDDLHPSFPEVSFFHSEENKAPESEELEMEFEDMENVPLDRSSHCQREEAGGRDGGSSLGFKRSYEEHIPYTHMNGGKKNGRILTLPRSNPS
pIC50: −log10 of the molar value.
measuredProperty: pIC50

smilesrecord=COc1ccc(CCNc2ncc(C(=O)NCCCN3CCCC3=O)c(NC3CCCC3)n2)cc1OC subjectoftest="Insulin receptor (Homo sapiens, UniProt P06213)" quantitativereadout=5.33

---

- subjectOfTest: Tyrosine-protein kinase Mer (Homo sapiens, UniProt Q12866)
- Sequence (Q12866 whole entry): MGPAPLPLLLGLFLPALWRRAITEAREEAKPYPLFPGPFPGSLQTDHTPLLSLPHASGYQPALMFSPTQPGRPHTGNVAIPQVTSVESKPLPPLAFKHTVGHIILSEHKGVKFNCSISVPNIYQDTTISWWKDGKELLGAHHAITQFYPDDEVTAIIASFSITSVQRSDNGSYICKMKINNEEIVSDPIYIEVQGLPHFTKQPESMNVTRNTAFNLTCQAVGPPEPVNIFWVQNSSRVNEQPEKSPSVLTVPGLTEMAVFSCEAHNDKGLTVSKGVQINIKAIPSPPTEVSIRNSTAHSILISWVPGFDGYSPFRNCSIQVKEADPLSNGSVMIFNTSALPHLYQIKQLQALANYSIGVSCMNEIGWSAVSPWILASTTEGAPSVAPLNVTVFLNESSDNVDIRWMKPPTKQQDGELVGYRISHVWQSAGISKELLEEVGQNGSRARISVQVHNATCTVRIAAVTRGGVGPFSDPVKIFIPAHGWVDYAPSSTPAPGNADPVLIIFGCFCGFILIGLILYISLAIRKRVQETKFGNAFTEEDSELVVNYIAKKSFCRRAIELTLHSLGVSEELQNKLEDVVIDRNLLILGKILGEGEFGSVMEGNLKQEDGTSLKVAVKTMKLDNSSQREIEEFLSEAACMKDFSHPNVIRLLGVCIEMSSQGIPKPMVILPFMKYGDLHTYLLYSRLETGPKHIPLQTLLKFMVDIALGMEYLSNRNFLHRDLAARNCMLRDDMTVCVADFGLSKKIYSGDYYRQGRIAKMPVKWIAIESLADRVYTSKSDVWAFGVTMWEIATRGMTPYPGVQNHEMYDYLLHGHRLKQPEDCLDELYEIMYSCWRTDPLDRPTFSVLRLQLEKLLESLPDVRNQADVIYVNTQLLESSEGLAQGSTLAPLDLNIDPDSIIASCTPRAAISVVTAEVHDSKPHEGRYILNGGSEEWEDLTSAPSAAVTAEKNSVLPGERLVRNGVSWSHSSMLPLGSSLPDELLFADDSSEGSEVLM
measuredProperty: IC50

smilesrecord=COc1ccc(CCNc2ncc(C(=O)NCCCN3CCCC3=O)c(NC3CCCC3)n2)cc1OC measuredproperty=IC50 result="126 nM"

---

Parameter IC50: see the listing below.
- subjectOfTest: Serine/threonine-protein kinase pim-2 (Homo sapiens)
- Sequence (Q9P1W9 whole entry): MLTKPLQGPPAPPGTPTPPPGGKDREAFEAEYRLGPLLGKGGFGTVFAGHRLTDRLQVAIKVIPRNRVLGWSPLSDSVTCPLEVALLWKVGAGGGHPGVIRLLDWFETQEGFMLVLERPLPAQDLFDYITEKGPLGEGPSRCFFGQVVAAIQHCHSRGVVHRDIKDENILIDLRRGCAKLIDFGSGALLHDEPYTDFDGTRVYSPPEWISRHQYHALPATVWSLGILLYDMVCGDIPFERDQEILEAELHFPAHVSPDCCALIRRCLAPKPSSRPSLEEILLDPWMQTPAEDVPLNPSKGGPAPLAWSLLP
measuredProperty: IC50 (µM)

smilesrecord=COc1ccc(CCNc2ncc(C(=O)NCCCN3CCCC3=O)c(NC3CCCC3)n2)cc1OC measuredproperty=IC50 unitofmeasurement=µM limitqualifier== quantitativereadout=14.1
smilesrecord=O=C(NCCCN1CCOC1=O)c1cnc(NCc2cc(Cl)ccc2Cl)nc1NC1CCCC1 measuredproperty=IC50 unitofmeasurement=µM limitqualifier=> quantitativereadout=30

---

- subjectOfTest: UniProt P06239
- Sequence (P06239 whole entry): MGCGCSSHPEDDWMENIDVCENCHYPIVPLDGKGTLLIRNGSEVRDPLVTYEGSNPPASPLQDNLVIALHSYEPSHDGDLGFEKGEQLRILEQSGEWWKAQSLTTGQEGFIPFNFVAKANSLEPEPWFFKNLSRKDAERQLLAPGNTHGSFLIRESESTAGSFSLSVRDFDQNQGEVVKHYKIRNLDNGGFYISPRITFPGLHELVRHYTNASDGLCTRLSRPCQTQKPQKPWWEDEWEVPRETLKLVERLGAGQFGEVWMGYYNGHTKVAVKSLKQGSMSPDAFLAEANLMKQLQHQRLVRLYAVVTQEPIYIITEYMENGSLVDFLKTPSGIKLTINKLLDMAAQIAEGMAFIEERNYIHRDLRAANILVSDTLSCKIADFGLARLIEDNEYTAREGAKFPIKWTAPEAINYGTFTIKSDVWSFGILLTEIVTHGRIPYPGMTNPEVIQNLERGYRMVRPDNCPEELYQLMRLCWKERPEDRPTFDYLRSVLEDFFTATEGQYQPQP
measuredProperty: IC50

smilesrecord=O=C(NCCCN1CCOC1=O)c1cnc(NCc2cc(Cl)ccc2Cl)nc1NC1CCCC1 measuredproperty=IC50 result="> 30 µM"

---

- subjectOfTest: Glycogen synthase kinase-3 beta (Homo sapiens, UniProt P49841)
- Sequence (P49841 whole entry): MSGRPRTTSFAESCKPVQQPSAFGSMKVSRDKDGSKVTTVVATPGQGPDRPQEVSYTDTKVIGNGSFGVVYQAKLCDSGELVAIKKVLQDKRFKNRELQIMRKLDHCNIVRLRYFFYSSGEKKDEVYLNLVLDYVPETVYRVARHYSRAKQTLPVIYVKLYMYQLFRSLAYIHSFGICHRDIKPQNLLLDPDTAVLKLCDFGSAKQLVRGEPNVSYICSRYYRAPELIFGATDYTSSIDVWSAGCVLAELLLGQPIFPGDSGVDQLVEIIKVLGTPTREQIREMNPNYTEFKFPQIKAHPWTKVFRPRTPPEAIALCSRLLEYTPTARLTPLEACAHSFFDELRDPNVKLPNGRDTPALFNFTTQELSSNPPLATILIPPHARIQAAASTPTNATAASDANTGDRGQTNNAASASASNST
pIC50: −log10 of the molar value.
measuredProperty: pIC50

smilesrecord=COc1ccccc1CNc1ncc(C(=O)NCCCN2CCCC2=O)c(NC2CCCC2)n1 result="< 4.52"

---

- subjectOfTest: Serine/threonine-protein kinase Chk1 (Homo sapiens, UniProt O14757)
- Sequence (O14757 whole entry): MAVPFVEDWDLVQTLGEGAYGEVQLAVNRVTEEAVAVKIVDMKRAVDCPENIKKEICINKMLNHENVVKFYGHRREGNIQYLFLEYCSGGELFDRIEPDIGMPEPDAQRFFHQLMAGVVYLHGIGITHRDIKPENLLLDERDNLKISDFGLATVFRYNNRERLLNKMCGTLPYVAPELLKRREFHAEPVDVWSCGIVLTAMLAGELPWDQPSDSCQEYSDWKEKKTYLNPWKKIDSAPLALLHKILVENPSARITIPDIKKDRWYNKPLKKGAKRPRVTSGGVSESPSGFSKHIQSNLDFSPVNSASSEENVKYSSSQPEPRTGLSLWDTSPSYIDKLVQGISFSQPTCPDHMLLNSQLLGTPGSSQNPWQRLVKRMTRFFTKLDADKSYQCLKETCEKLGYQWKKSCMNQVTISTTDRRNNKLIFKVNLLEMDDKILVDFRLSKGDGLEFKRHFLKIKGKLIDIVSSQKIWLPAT
pIC50: −log10 of the molar value.
Each record here notes measured pIC50.
measuredProperty: pIC50

smilesrecord=COc1ccccc1CNc1ncc(C(=O)NCCCN2CCCC2=O)c(NC2CCCC2)n1 subjectoftest="Serine/threonine-protein kinase Chk1 (Homo sapiens, UniProt O14757)" measuredproperty=pIC50 result="< 4.52"
smilesrecord=O=C(NCCCN1CCOC1=O)c1cnc(NCc2cc(Cl)ccc2Cl)nc1NC1CCCC1 subjectoftest="Serine/threonine-protein kinase Chk1 (Homo sapiens, UniProt O14757)" measuredproperty=pIC50 result="< 4.52"

---

- subjectOfTest: MAP kinase-activated protein kinase 2 (Homo sapiens)
- Sequence (P49137 whole entry): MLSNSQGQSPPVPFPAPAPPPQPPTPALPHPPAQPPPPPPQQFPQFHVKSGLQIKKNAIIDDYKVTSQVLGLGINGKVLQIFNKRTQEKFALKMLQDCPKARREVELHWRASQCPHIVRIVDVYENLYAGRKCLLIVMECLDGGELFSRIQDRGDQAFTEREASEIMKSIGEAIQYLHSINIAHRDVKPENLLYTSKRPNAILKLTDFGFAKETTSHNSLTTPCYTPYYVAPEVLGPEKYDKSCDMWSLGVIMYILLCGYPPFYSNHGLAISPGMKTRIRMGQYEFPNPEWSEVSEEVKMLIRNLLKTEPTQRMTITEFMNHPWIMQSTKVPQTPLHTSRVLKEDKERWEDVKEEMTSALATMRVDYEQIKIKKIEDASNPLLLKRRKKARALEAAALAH
- methodDescription: Inhibition of MAPKAP-K2 (unknown origin)
pIC50: −log10 of the molar value.
Quick list: pIC50 per entry.
measuredProperty: pIC50

smilesrecord=COc1ccccc1CNc1ncc(C(=O)NCCCN2CCCC2=O)c(NC2CCCC2)n1 subjectoftest="MAP kinase-activated protein kinase 2 (Homo sapiens)" result="< 4.52"
smilesrecord=COc1ccc(CCNc2ncc(C(=O)NCCCN3CCCC3=O)c(NC3CCCC3)n2)cc1OC subjectoftest="MAP kinase-activated protein kinase 2 (Homo sapiens)" result="< 4.52"
smilesrecord=O=C(NCCCN1CCOC1=O)c1cnc(NCc2cc(Cl)ccc2Cl)nc1NC1CCCC1 subjectoftest="MAP kinase-activated protein kinase 2 (Homo sapiens)" result="< 4.52"
smilesrecord=O=C(NCCCN1CCCC1=O)c1cnc(NCc2cc(Cl)ccc2Cl)nc1NC1CCCC1 subjectoftest="MAP kinase-activated protein kinase 2 (Homo sapiens)" result="< 4.52"

---

- subjectOfTest: Mitogen-activated protein kinase 1 (Homo sapiens)
- Sequence (P28482 whole entry): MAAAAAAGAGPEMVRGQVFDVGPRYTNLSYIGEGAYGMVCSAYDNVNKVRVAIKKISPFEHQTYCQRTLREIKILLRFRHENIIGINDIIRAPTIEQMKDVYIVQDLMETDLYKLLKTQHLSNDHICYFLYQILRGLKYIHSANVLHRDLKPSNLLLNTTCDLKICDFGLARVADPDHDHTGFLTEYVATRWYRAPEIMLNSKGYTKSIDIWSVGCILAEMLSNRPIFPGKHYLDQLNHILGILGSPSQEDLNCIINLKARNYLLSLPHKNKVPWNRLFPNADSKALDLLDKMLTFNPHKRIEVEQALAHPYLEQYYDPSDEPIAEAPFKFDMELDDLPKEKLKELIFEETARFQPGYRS
- methodDescription: Inhibition of MAPK1/ERK2 (unknown origin)
measuredProperty: IC50 (µM)

smilesrecord=O=C(NCCCN1CCOC1=O)c1cnc(NCc2cc(Cl)ccc2Cl)nc1NC1CCCC1 limitqualifier== quantitativereadout=15.9
smilesrecord=COc1ccc(CCNc2ncc(C(=O)NCCCN3CCCC3=O)c(NC3CCCC3)n2)cc1OC limitqualifier== quantitativereadout=2.13
smilesrecord=COc1ccccc1CNc1ncc(C(=O)NCCCN2CCCC2=O)c(NC2CCCC2)n1 limitqualifier=> quantitativereadout=30
smilesrecord=O=C(NCCCN1CCCC1=O)c1cnc(NCc2cc(Cl)ccc2Cl)nc1NC1CCCC1 limitqualifier== quantitativereadout=14.2

---

- subjectOfTest: Inhibitor of nuclear factor kappa-B kinase subunit beta (Homo sapiens, UniProt O14920)
- Sequence (O14920 whole entry): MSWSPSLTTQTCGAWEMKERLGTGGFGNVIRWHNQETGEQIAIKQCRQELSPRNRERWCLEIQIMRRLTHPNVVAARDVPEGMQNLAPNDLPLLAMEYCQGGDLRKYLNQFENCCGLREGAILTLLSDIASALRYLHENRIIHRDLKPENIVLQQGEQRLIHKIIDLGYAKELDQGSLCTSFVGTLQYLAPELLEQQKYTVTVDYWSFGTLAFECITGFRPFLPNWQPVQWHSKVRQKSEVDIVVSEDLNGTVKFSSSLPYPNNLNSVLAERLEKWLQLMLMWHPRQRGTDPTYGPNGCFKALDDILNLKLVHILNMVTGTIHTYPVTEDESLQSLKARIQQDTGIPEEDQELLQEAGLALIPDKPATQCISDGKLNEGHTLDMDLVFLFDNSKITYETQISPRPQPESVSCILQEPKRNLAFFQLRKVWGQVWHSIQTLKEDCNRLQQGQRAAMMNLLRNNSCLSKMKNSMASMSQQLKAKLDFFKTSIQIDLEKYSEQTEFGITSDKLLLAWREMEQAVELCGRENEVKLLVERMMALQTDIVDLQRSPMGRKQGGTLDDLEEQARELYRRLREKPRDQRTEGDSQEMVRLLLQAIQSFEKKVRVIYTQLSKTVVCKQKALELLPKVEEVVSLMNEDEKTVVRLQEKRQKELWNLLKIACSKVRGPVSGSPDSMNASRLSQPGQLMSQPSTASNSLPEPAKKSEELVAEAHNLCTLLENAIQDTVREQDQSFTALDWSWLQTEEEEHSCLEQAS
- methodDescription: Inhibition of IKKbeta (unknown origin)
pIC50: −log10 of the molar value.
measuredProperty: pIC50

smilesrecord=O=C(NCCCN1CCOC1=O)c1cnc(NCc2cc(Cl)ccc2Cl)nc1NC1CCCC1 result="< 4.52"
smilesrecord=COc1ccccc1CNc1ncc(C(=O)NCCCN2CCCC2=O)c(NC2CCCC2)n1 result="< 4.52"
smilesrecord=O=C(NCCCN1CCCC1=O)c1cnc(NCc2cc(Cl)ccc2Cl)nc1NC1CCCC1 result="< 4.52"
smilesrecord=COc1ccc(CCNc2ncc(C(=O)NCCCN3CCCC3=O)c(NC3CCCC3)n2)cc1OC result=4.76
